The reader will find reported inhibition at 1 µM values listed item by item below.
TARGET DESC: purified recombinant human PI3K enzyme γ (Homo sapiens, UniProt P48736)
Construct: purchased Invitrogen, USA
Sequence (P48736 whole entry): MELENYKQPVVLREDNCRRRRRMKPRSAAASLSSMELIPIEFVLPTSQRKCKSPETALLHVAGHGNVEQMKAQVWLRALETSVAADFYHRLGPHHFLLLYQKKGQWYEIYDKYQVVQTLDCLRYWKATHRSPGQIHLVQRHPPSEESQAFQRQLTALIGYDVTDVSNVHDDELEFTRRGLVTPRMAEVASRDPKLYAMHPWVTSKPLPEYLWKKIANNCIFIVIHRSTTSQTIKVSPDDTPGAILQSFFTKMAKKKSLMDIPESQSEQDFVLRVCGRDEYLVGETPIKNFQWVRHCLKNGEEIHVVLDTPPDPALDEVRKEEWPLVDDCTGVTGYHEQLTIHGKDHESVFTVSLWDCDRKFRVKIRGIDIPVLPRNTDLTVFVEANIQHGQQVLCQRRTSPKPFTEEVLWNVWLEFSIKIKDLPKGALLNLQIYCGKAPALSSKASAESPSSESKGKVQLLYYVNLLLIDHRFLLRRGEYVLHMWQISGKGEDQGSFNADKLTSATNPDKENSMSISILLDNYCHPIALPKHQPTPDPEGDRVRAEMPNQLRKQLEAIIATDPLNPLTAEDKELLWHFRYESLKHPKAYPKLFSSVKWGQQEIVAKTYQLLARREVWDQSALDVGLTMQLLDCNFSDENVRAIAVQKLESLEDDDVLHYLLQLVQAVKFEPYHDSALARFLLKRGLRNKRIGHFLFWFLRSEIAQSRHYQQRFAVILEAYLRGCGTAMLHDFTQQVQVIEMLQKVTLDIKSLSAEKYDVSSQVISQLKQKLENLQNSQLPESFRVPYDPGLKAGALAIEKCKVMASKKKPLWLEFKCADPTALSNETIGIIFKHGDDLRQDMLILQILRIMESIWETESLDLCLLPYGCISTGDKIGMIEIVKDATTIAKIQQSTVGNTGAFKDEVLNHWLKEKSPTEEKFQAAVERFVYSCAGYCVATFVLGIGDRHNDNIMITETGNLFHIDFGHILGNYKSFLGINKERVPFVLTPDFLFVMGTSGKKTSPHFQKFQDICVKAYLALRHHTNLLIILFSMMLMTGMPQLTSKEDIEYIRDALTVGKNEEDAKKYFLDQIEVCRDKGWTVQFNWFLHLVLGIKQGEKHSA
METHOD: Inhibition of PI3-Kinase enzymatic activity (HTRF enzyme assay), γ
Format: biochemical
EXPERIMENTAL CONTEXT: 1 μM compound; PI3K γ 100 ng/well; PIP2 10 μM; ATP 50 μM; read-out: Percentage inhibition of PI3K activity, γ

| MOLECULE | ASSAY VALUE |
| --- | --- |
| Cc1ccc(C)n1-n1c(Cn2nc(-c3ccc(O)c4c3CC(C)(C)O4)c3c(N)ncnc32)nc2cccc(C#CCN3CCN(C)CC3)c2c1=O [compound 57] | 60 to 80% |
| CC1(C)Cc2c(-c3nn(Cc4nc5cccc(Br)c5c(=O)n4C4(c5ccccc5)CC4)c4ncnc(N)c34)ccc(O)c2O1 [compound 13] | 80 to 100% |

inhibition at 1 µM recorded for this molecule, CC1(C)Cc2c(-c3nn(Cc4nc5cccc(-c6ccsc6)c5c(=O)n4C4(c5ccccc5)CC4)c4ncnc(N)c34)ccc(O)c2O1 [compound 25] , is 80 to 100%

inhibition at 1 µM for Cc1ccc(C)n1-n1c(Cn2nc(-c3ccc(O)c4c3CC(C)(C)O4)c3c(N)ncnc32)nc2cccc(-c3cccn3C)c2c1=O [compound 77] is 80 to 100%

The recorded inhibition at 1 µM for entry Cc1ccc(C2(n3c(Cn4nc(-c5ccc(O)c6c5CC(C)(C)O6)c5c(N)ncnc54)nc4cccc(-c5ccnn5C)c4c3=O)CC2)cc1 [compound 40] equals 60 to 80%

Notebook: Cc1cccc2nc(Cn3nc(-c4ccc(O)c5c4CC(C)(C)O5)c4c(N)ncnc43)n(C3(c4cccs4)CC3)c(=O)c12 [compound 60] , inhibition at 1 µM read as 60 to 80%

----------
TARGET DESC: purified recombinant human PI3K enzyme γ (Homo sapiens, UniProt P48736)
Construct: purchased Invitrogen, USA
METHOD: Inhibition of PI3-Kinase enzymatic activity (HTRF enzyme assay), γ
Format: biochemical
EXPERIMENTAL CONTEXT: 1 μM compound; PI3K γ 100 ng/well; PIP2 10 μM; ATP 50 μM; read-out: Percentage inhibition of PI3K activity, γ
inhibition at 1 µM reference

Check out these entries, answers already filled in.
| COMPOUND | TARGET DESC | inhibition at 1 µM |
| --- | --- | --- |
| CC1(C)Cc2c(-c3nn(Cc4nc5cccc(-c6ccncc6)c5c(=O)n4C4(c5ccccc5)CC4)c4ncnc(N)c34)ccc(O)c2O1 | purified recombinant human PI3K enzyme γ (Homo sapiens, UniProt P48736) | 60 to 80% |
| Cc1ccccc1C1(n2c(Cn3nc(-c4ccc(O)c5c4CC(C)(C)O5)c4c(N)ncnc43)nc3cccc(C)c3c2=O)CC1 | purified recombinant human PI3K enzyme γ (Homo sapiens, UniProt P48736) | 60 to 80% |
| Cc1cccc2nc(Cn3nc(-c4ccc(O)c5c4CC(C)(C)O5)c4c(N)ncnc43)n(-n3cccn3)c(=O)c12 | purified recombinant human PI3K enzyme γ (Homo sapiens, UniProt P48736) | 60 to 80% |
| CC1(C)Cc2c(-c3nn(Cc4nc5cccc(C#CCN6CCNC(=O)C6)c5c(=O)n4-n4cccc4)c4ncnc(N)c34)ccc(O)c2O1 | purified recombinant human PI3K enzyme γ (Homo sapiens, UniProt P48736) | 80 to 100% |
| CC1(C)Cc2c(-c3nn(Cc4nc5cccc(C#CCN6CCOCC6)c5c(=O)n4-n4cccc4)c4ncnc(N)c34)ccc(O)c2O1 | purified recombinant human PI3K enzyme γ (Homo sapiens, UniProt P48736) | 60 to 80% |

Lab entry: purified recombinant human PI3K enzyme γ (Homo sapiens, UniProt P48736) assay, compound CC1(C)Cc2c(-c3nn(Cc4nc5cccc(Cl)c5c(=O)n4C4(c5ccccc5)CC4)c4ncnc(N)c34)ccc(O)c2O1 , inhibition at 1 µM = 80 to 100%

Noted inhibition at 1 µM for CCn1cc(-c2cccc3nc(Cn4nc(-c5ccc(O)c6c5CC(C)(C)O6)c5c(N)ncnc54)n(-n4c(C)ccc4C)c(=O)c23)cn1 , tested on purified recombinant human PI3K enzyme γ (Homo sapiens, UniProt P48736): 80 to 100%

Measured inhibition at 1 µM for this entry Cc1ccc(C)n1-n1c(Cn2nc(-c3ccc(O)c4c3CC(C)(C)O4)c3c(N)ncnc32)nc2cccc(-c3ccnn3C)c2c1=O on purified recombinant human PI3K enzyme γ (Homo sapiens, UniProt P48736): 80 to 100%

Result for Cn1nccc1-c1cccc2nc(Cn3nc(-c4ccc(O)c5c4CC(C)(C)O5)c4c(N)ncnc43)n(C3(c4ccccc4)CC3)c(=O)c12 , tested on purified recombinant human PI3K enzyme γ (Homo sapiens, UniProt P48736), inhibition at 1 µM: 60 to 80%

Observed inhibition at 1 µM on purified recombinant human PI3K enzyme γ (Homo sapiens, UniProt P48736), entry Cc1cccc(C2(n3c(Cn4nc(-c5ccc(O)c6c5CC(C)(C)O6)c5c(N)ncnc54)nc4cccc(-c5ccnn5C)c4c3=O)CC2)c1 , equals 60 to 80%

The observed inhibition at 1 µM for Cc1cc(C)n(-n2c(Cn3nc(-c4ccc(O)c5c4CC(C)(C)O5)c4c(N)ncnc43)nc3cccc(C)c3c2=O)n1 when tested with purified recombinant human PI3K enzyme γ (Homo sapiens, UniProt P48736) stands at 60 to 80%

Entry Cc1cccc2nc(C(C)n3nc(-c4ccc(O)c5c4CC(C)(C)O5)c4c(N)ncnc43)n(-n3cccc3)c(=O)c12 (racemic) under purified recombinant human PI3K enzyme γ (Homo sapiens, UniProt P48736) had inhibition at 1 µM of 80 to 100%

Param item: Cc1ccc(C)n1-n1c(Cn2nc(-c3ccc(O)c4c3CCC4)c3c(N)ncnc32)nc2cccc(-c3cnn(C)c3)c2c1=O ; param system: purified recombinant human PI3K enzyme γ (Homo sapiens, UniProt P48736); output inhibition at 1 µM: 80 to 100%

The reported purified recombinant human PI3K enzyme γ (Homo sapiens, UniProt P48736) inhibition at 1 µM of CC1(C)Cc2c(-c3nn(Cc4nc5cccc(-c6cccnc6)c5c(=O)n4C4(c5ccccc5)CC4)c4ncnc(N)c34)ccc(O)c2O1 is 60 to 80%

So the reported inhibition at 1 µM for CCn1cc(-c2cccc3nc(Cn4nc(-c5ccc(O)c6c5CC(C)(C)O6)c5c(N)ncnc54)n(-n4cccc4)c(=O)c23)cn1 , on purified recombinant human PI3K enzyme γ (Homo sapiens, UniProt P48736), turned out to be 60 to 80%

Short answer on purified recombinant human PI3K enzyme γ (Homo sapiens, UniProt P48736) for Cc1ccc(C)n1-n1c(Cn2nc(-c3ccc(O)c4c3CC(C)(C)O4)c3c(N)ncnc32)nc2cccc(C#CC3CC3)c2c1=O , inhibition at 1 µM: 80 to 100%

Cc1cccc2nc(Cn3nc(-c4ccc(O)c5c4CC(C)(C)O5)c4c(N)ncnc43)n(C3(c4ccccc4)CC3)c(=O)c12 on purified recombinant human PI3K enzyme γ (Homo sapiens, UniProt P48736) gives inhibition at 1 µM = 60 to 80%

Lab note: compound CC1(C)Cc2c(-c3nn(Cc4nc5cccc(C#CCNC(=O)C6CC6)c5c(=O)n4-n4cccc4)c4ncnc(N)c34)ccc(O)c2O1 tested on purified recombinant human PI3K enzyme γ (Homo sapiens, UniProt P48736); recorded inhibition at 1 µM was 80 to 100%

Value sought: inhibition at 1 µM, system purified recombinant human PI3K enzyme γ (Homo sapiens, UniProt P48736), item CC1(C)Cc2c(-c3nn(Cc4nc5cccc(-c6ccsc6)c5c(=O)n4-n4cccc4)c4ncnc(N)c34)ccc(O)c2O1 . Result: 80 to 100%
